Target: T1, Epstein-Barr virus BHRF1 a.a. 1-161 with C-terminal avi-6his tag (Epstein-Barr virus)
T1 construct: also called EBV BHRF1; BHRF1-biotin
T1 chain: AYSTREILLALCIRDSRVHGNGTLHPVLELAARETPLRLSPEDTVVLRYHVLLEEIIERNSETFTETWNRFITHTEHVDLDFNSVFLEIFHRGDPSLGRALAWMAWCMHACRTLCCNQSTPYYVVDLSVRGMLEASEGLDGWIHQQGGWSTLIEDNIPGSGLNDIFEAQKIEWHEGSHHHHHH
Assay: yeast display library, FACS sort at 100 nM BHRF1, deep sequencing
Please use Fulfilled whenever Log2 enrichment ratio is not below -2 log2, and Not fulfilled whenever it is.

Solved entries:
Index 40 (designed binder) GNEAEQRREEFKEIMEKKKDEAEKKSEKIKRLALAFDLSDDDKTKATDEWIAISLEIIGDAFNFGEGLKDEAKRRKKRGLKRDEEVDKFEKIAEQAIEELRKLAEEADERGAKHLRDG ... Not fulfilled
Index 64 (designed binder) GLSGDDAEDFARQEIEKRAREAEEKARKLIWLASKYDAKREEALKFHLRWIAFALMMIGDAFNAEEIAREMLEIARELGLTREEEAKEKLEKIRKKETEASKKMAERGRRLDNQANNG ... Not fulfilled

Query: State whether the measured Log2 enrichment ratio reaches -2 log2, counting equality as reaching it, for Index 29 (designed binder) GEVAKDLAKLAIDLAKKLMLLFWWFFELFKLFAKFTDEWQEWKARGTAFWIALSLAAIGDFFNARRRAELQAREGKQKGLTTEEKEKRWREHLKEAWEKLEKISRLAFLFAQEAENQG
Reply: Fulfilled

Query: Dear colleague, could you confirm whether Index 71 (designed binder) GERAERARDWAKDQMDDELEKAREKLWKLAFIAFKFYLKLELLFKLMFRWIAIMLEAIGDFFNVWAIAKRWLERYKLQNNIRKEEIEKAKERAKKLYEEAADKAAKLGRFYMKLLTSG has Log2 enrichment ratio at or above -2 log2?
Reply: Not fulfilled
